System: AtraOR1 (Amyelois transitella)
Construct: full ORF (428 residues, JX173648) in pGEMHE, expressed in Xenopus oocytes; with AtraOrco
Sequence (J7FXC2 1-427): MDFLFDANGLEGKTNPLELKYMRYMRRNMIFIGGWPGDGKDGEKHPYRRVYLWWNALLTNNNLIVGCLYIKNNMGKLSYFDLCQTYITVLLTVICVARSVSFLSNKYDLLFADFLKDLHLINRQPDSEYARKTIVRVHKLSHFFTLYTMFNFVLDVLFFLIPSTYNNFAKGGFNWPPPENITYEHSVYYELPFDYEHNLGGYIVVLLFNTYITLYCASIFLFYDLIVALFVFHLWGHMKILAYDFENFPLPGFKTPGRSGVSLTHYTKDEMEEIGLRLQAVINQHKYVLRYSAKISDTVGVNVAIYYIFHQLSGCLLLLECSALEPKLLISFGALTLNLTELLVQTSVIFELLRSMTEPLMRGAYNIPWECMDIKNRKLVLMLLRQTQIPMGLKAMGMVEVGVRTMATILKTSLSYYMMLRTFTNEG
Sequence (J7G1V0 1-474 partner): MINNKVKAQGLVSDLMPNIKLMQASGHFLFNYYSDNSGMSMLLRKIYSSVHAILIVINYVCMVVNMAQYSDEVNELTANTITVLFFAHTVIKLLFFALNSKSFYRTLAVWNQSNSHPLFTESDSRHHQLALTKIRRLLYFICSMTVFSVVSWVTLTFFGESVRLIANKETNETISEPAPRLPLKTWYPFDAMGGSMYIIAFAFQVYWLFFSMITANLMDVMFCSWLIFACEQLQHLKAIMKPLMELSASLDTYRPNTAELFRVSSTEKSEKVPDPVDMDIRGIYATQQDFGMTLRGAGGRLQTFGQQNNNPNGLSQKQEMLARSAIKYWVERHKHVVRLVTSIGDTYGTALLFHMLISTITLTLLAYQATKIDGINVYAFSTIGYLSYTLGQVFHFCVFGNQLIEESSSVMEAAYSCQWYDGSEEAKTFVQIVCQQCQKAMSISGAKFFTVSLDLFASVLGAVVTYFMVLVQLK
Assay details: two-electrode voltage clamp in Xenopus oocytes
Where a name gives a salt, the structure may show the parent alone.
The compounds listed here are annotated with their pEC50.
// field semantics: pEC50 = negative decimal log of concentration (mol/L)

compound="CC/C=C\\C=C/CCCCCCCCCC=O [Z11Z13-16Ald, (11Z,13Z)-hexadecadienal]" readout_type=pEC50 recorded_measurement=6.30

Now consider the entry below.
Please tell me: pEC50 of CC/C=C\C=C/CCCCCCCCOC=O [Z9Z11-14OFor, (9Z,11Z)-tetradecadien-1-yl formate] , system AtraOR1 (Amyelois transitella)?
7.05
